Reference source for all entries: patent EP0268871A1

# TARGET DESC: UniProt:P22303
# Sequence (P22303 32-614): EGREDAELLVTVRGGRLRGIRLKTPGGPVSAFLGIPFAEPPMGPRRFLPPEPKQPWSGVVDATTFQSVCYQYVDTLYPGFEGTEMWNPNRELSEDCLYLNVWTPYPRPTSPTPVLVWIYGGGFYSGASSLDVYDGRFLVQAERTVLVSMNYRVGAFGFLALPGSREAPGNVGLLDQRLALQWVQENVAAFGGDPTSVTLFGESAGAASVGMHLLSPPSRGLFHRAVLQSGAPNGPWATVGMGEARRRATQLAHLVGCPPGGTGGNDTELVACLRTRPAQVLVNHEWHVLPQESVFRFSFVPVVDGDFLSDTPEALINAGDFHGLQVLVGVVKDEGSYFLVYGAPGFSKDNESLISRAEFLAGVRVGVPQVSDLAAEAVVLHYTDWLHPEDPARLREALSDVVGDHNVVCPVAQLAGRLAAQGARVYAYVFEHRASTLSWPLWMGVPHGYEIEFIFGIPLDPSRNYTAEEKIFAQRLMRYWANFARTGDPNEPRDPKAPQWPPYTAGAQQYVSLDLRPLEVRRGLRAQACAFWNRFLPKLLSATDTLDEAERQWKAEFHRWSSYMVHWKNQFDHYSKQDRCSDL
# ASSAY PROCEDURE: Determination of inhibitory activity against acetylcholinesterase (photometric method of Ellman et al.)
# Type: biochemical
# STUDY CONDITIONS: Relative ratio = IC50 (molar) of Tacrine / IC50 (molar) of test compound; IC50 = concentration of drug which inhibits 50% level of control
Entries and their Acetylcholinesterase Inhibition (reative ratio*) values follow.
The reply should be a number, written without any unit.

Consider the compound shown here: Nc1c2c(nc3cc(F)ccc13)CCCC2 [Example 2] What is its recorded Acetylcholinesterase Inhibition (reative ratio*)?
2.53

Consider the compound shown here: Nc1c2c(nc3c(F)cccc13)CCCCC2 [compound 156] What is its recorded Acetylcholinesterase Inhibition (reative ratio*)?
2.50

***
Consider the compound shown here: Nc1c2c(nc3cc(C(F)(F)F)ccc13)CCCC2 [compound 36] What is its recorded Acetylcholinesterase Inhibition (reative ratio*)?
1.15

Consider the compound shown here: Cc1cccc2nc3c(c(N)c12)CC(C)C3 (centres unmarked) [Example 14] What is its recorded Acetylcholinesterase Inhibition (reative ratio*)?
1.27

Consider the compound shown here: Nc1c2c(nc3cccc(F)c13)CCCC2 [compound 157] What is its recorded Acetylcholinesterase Inhibition (reative ratio*)?
3.60

Consider the compound shown here: Cc1cccc2nc3c(c(N)c12)CSCC3 [compound 112] What is its recorded Acetylcholinesterase Inhibition (reative ratio*)?
1.30

Consider the compound shown here: Nc1c2c(nc3cccc(F)c13)CSCC2 [compound 118] What is its recorded Acetylcholinesterase Inhibition (reative ratio*)?
3.13

Consider the compound shown here: Nc1c2c(nc3cc(Cl)ccc13)C1C=CC2CC1 (centres unmarked) [Example 94] What is its recorded Acetylcholinesterase Inhibition (reative ratio*)?
2.22

Consider the compound shown here: Nc1c2c(nc3cccc(F)c13)CCC2 [Example 6] What is its recorded Acetylcholinesterase Inhibition (reative ratio*)?
1.75

Consider the compound shown here: Nc1c2c(nc3cccc(Cl)c13)CSCC2 [compound 149] What is its recorded Acetylcholinesterase Inhibition (reative ratio*)?
4.12

Consider the compound shown here: Nc1c2c(nc3cc(F)c(F)cc13)CCCCC2 [compound 38] What is its recorded Acetylcholinesterase Inhibition (reative ratio*)?
2.04
